target: BACE1 enzyme (Homo sapiens); construct: which overexpresses the BACE1 enzyme, was derived from HEK293 cells; endogenous in cells; washed 48,000 x g pellet of the cell homogenate; assay: Radioligand displacement assay with a radiolabeled BACE inhibitor, HEK293-9B.A1 cell homogenate; type: binding
pIC50: −log10 of the molar value.
endpoint-label: pIC50

Data request: For the compound CCCCN(C)C(=O)n1cc(C(=O)N[C@@H](Cc2cc(F)cc(F)c2)[C@H](O)C2Cc3ccccc3CN2)c2cccnc21 (stereo partly shown) , give its reported pIC50.
Data returned: < 6.00

###

target: BACE1 enzyme (Homo sapiens, UniProt P56817); construct: which overexpresses the BACE1 enzyme, was derived from HEK293 cells; endogenous in cells; washed 48,000 x g pellet of the cell homogenate; assay: Radioligand displacement assay with a radiolabeled BACE inhibitor, HEK293-9B.A1 cell homogenate; type: binding; conditions: displacement of 1 nM tritiated radioligand, HEK293-9B.A1 homogenate, pH 5.0, 1.5 hr at 25° C.; read-out: Activity Rating (Activity based on IC50 values)
Sequence (P56817 46-501): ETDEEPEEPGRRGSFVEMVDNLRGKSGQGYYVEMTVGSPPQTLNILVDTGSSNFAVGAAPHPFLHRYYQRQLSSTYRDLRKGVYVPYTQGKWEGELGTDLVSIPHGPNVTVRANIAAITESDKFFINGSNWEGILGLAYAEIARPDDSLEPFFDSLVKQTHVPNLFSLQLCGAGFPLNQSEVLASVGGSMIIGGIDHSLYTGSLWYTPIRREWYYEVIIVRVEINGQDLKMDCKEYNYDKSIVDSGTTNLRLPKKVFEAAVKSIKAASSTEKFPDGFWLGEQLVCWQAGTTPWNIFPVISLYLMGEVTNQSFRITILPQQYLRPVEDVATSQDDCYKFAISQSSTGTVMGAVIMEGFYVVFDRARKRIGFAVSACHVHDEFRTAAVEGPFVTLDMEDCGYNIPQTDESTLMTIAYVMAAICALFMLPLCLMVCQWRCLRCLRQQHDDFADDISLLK
endpoint-label: IC50

Observe how each entry below is paired with its result.
>  <compound>
CCC(C)[C@@]1(NC(C)=O)CCN([C@@H](CCc2ccccc2)C(=O)N[C@@H](Cc2cc(F)cc(F)c2)[C@H](O)[C@H]2Cc3ccccc3CN2)C1=O (stereo in doubt) [Example 1]

>  <assayed-system>
BACE1 enzyme (Homo sapiens, UniProt P56817)

>  <IC50>
< 10 nM

$$$$
>  <compound>
CCC(C)[C@@]1(NC(C)=O)CCN([C@@H](CCc2ccccc2)C(=O)N[C@@H](Cc2cc(F)cc(F)c2)[C@H](O)C2Cc3cccc(OC)c3CN2)C1=O (stereo partly shown) [Example 7]

>  <assayed-system>
BACE1 enzyme (Homo sapiens, UniProt P56817)

>  <IC50>
< 10 nM

$$$$
>  <compound>
CCC(C)[C@@]1(NC(C)=O)CCN([C@@H](CCc2ccccc2)C(=O)N[C@@H](Cc2cc(F)cc(F)c2)[C@H](O)[C@@H]2Cc3ccccc3CN2)C1=O (stereo in doubt) [Example 2]

>  <assayed-system>
BACE1 enzyme (Homo sapiens, UniProt P56817)

>  <IC50>
10 to 1000 nM

$$$$

Data request: For the compound CC(=O)N[C@]1(CC(C)C)CCN([C@@H](CCc2ccccc2)C(=O)N[C@@H](Cc2cc(F)cc(F)c2)[C@H](O)[C@H]2Cc3ccccc3CN2)C1=O [Example 6] , give its reported IC50.
Data returned: < 10 nM

###

molecular target: BACE1 enzyme (Homo sapiens, UniProt P56817); construct: which overexpresses the BACE1 enzyme, was derived from HEK293 cells; endogenous in cells; washed 48,000 x g pellet of the cell homogenate; assay: Radioligand displacement assay with a radiolabeled BACE inhibitor, HEK293-9B.A1 cell homogenate; format: binding; conditions: displacement of 1 nM tritiated radioligand, HEK293-9B.A1 homogenate, pH 5.0, 1.5 hr at 25° C.; read-out: Activity Rating (Activity based on IC50 values)
endpoint-label: IC50

Observe how each entry below is paired with its result.
>  <smiles-notation>
CCCC[C@H]1CCN([C@@H](C)C(=O)N[C@@H](Cc2cc(F)cc(F)c2)[C@H](O)[C@H]2Cc3ccccc3CN2)C1=O

>  <endpoint-label>
IC50

>  <obs-value>
> 1000 nM

$$$$
>  <smiles-notation>
CCCC[C@H]1CCN([C@@H](CCc2ccccc2)C(=O)N[C@@H](Cc2cc(F)cc(F)c2)[C@H](O)[C@H]2Cc3ccccc3CN2)C1=O

>  <endpoint-label>
IC50

>  <obs-value>
> 1000 nM

$$$$

Alright, here's another compound for you.
Data request: For the compound CCCOc1cccc2c1CN[C@@H]([C@@H](O)[C@H](Cc1cc(F)cc(F)c1)NC(=O)[C@H](CCc1ccccc1)N1CC[C@](NC(C)=O)([C@H](C)CC)C1=O)C2 , give its reported IC50.
Data returned: < 10 nM
